target: L-glutaminase present in mice brain homogenate (Glutaminase(Brain)) (Mus musculus); assay: Glutaminase enzyme activity using glutaminase enzyme from mice brain/kidney homogenate (Nessler's reagent, ammonia); format: biochemical; conditions: read-out: Glutaminase(Brain) activity % inhibition 0.1 μM
Where a name gives a salt, the structure may show the parent alone.
// reported inhibition at 0.1 µM for each item listed

These solved cases illustrate the format of a correct answer.
> print(dat)
                                   compound   obs.value
1  O=C(Cc1cccc(OC(F)(F)F)c1)Nc1ccc(CC2CC(c3nnc(NC(=O)Cc4ccccn4)s3)C2)nn1 (stereo not drawn)  75 to 100%
2  O=C(Cc1cccc(OC(F)(F)F)c1)Nc1ccc(CCCCc2nnc(NC(=O)Cc3ccc(C4CCNCC4)cc3)s2)cn1 [Example-34, hydrochloride]       < 25%
3  O=C(Cc1cccc(OC(F)(F)F)c1)Nc1ccc(CCCCc2nnc(NC(=O)Cc3ccccn3)s2)cn1   50 to 75%

Input: Report inhibition at 0.1 µM for "O=C(Cc1cccc(OC(F)(F)F)c1)Nc1cnc(CCCCc2nnc(NC(=O)Cc3ccccn3)s2)cn1" please.
Output: < 25%

Input: Report inhibition at 0.1 µM for O=C(Cc1cccnc1)Nc1nnc(C2CCC(c3nnc(NC(=O)Cc4cccnc4)s3)CC2)s1 (stereo not drawn) please.
Output: < 25%

Input: Report inhibition at 0.1 µM for O=C(Cc1cccc(OC(F)(F)F)c1)Nc1ccc(CCCCc2nnc(NC(=O)Cc3cccc(C4CCNCC4)c3)s2)cn1 [Example-36, hydrochloride] please.
Output: 25 to 50%

====

Target: L-glutaminase present in mice brain homogenate (Glutaminase(Brain)) (Mus musculus)
Sequence (D3Z7P3 55-674): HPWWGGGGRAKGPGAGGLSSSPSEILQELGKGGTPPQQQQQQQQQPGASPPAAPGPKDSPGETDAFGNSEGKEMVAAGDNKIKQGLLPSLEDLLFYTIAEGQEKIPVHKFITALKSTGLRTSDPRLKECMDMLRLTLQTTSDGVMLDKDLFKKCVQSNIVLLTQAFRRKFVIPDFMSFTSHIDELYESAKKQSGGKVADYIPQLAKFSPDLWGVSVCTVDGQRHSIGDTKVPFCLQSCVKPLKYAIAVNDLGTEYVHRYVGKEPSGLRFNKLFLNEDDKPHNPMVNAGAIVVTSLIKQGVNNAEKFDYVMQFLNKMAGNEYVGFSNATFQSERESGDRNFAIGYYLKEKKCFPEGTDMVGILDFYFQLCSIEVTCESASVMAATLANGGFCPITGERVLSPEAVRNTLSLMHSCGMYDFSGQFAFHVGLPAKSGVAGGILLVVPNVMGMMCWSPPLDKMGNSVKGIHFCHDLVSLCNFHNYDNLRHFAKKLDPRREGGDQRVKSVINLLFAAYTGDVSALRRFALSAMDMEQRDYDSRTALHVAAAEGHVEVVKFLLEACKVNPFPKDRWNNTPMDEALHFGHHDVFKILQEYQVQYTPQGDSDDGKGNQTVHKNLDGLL
Assay: Glutaminase enzyme activity using glutaminase enzyme from mice brain/kidney homogenate (Nessler's reagent, ammonia)
Type: biochemical
Conditions: 0.1 μM; mice brain homogenate; read-out: Glutaminase(Brain) activity % inhibition 0.1 μM
reported_metric: inhibition at 0.1 µM

> print(dat)
                                smiles.repr   obs.value
1  O=C(Cc1cccnc1)Nc1ccc(CCCCc2nnc(NC(=O)Cc3cccnc3)s2)cn1   50 to 75%
2  O=C(Cc1cccc(OC(F)(F)F)c1)Nc1ccc(CCCCc2nnc(NC(=O)Cc3cccc(OC(F)(F)F)c3)s2)cn1   25 to 50%
3  O=C(Cc1cccc(OC(F)(F)F)c1)Nc1ccc(CCCCc2nnc(NC(=O)Cc3cccnc3)s2)c(F)n1   50 to 75%
4  O=C(Cc1cccc(OC(F)(F)F)c1)Nc1ccc(CCCCc2nnc(NC(=O)Cc3cnccn3)s2)cn1  75 to 100%
5  CS(=O)(=O)Nc1cccc(CC(=O)Nc2nnc(CCCCc3ccc(NC(=O)Cc4cccc(OC(F)(F)F)c4)nc3)s2)c1   50 to 75%

Okay, now this compound:
Input: Report inhibition at 0.1 µM for "CC(C)(C)OC(=O)N1CCC(c2ccc(CC(=O)Nc3nnc(CCCCc4ccc(NC(=O)Cc5cccc(OC(F)(F)F)c5)nc4)s3)cc2)CC1" please.
Output: < 25%

====

Molecular target: UniProt:D3Z7P3
Sequence (D3Z7P3 55-674): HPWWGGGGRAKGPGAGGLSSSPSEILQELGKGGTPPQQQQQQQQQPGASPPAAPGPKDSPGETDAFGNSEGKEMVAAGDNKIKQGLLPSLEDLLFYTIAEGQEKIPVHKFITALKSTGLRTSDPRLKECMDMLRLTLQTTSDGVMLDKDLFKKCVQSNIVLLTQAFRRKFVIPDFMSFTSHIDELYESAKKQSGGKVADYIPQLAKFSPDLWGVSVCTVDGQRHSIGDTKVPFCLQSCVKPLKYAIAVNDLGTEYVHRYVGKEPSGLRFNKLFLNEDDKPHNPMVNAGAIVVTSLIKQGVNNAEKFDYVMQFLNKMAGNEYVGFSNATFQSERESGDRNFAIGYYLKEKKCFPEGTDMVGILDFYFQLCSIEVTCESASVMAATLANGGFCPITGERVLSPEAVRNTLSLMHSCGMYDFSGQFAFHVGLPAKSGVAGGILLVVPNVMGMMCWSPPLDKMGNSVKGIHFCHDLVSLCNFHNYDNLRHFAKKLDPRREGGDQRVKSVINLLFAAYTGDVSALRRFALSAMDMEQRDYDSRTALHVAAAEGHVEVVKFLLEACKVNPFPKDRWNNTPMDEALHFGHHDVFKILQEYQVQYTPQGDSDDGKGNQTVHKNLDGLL
Experiment: Glutaminase enzyme activity using glutaminase enzyme from mice brain/kidney homogenate (Nessler's reagent, ammonia)
Format: biochemical
Conditions: 0.1 μM; mice brain homogenate; read-out: Glutaminase(Brain) activity % inhibition 0.1 μM
Method: Assay 3: Determination of Glutaminase Enzyme Activity Using Glutaminase Enzyme from Mice Brain/Kidney Step 1: Preparation of Tissue Homogenates: Male Balb/c mice were administered 0.28 M ammonium chloride in drinking water for 7 days. The animals were sacrificed and brain/kidney organs collected on dry ice. […] Aim: Compounds were assessed for their ability to inhibit the enzymatic activity of L-glutaminase present in mice brain/kidney homogenate. […]
// reported inhibition at 0.1 µM for each item listed

Input: Report inhibition at 0.1 µM for "O=C(Cc1cccnc1)Nc1ccc(CCCCc2nnc(NC(=O)Cc3ccccc3F)s2)cn1" please.
Output: 50 to 75%

Input: Report inhibition at 0.1 µM for "CS(=O)(=O)Nc1ccc(CC(=O)Nc2nnc(CCCCc3ccc(NC(=O)Cc4cccc(OC(F)(F)F)c4)nc3)s2)cc1" please.
Output: 50 to 75%

Input: Report inhibition at 0.1 µM for O=C(Cc1cccc(OC(F)(F)F)c1)Nc1nnc(CC2CCC(Cc3nnc(NC(=O)Cc4ccccn4)s3)CC2)s1 (stereo not drawn) please.
Output: < 25%

====

// reported inhibition at 1 µM for each item listed
biological target: L-glutaminase present in mice brain homogenate (Glutaminase(Brain)) (Mus musculus, UniProt D3Z7P3); experiment: Glutaminase enzyme activity using glutaminase enzyme from mice brain/kidney homogenate (Nessler's reagent, ammonia); type: biochemical; details: 1 μM; mice brain homogenate; read-out: Glutaminase(Brain) activity % inhibition @1 μM

> print(dat)
                                   molecule   obs.value
1  O=C(Cc1cccc(OC(F)(F)F)c1)Nc1ccc(CC2CC(c3nnc(NC(=O)Cc4cccnc4)s3)C2)cn1 (centres unmarked)  75 to 100%

Input: Report inhibition at 1 µM for "O=C(Cc1cccnc1)Nc1ccc(CCCCc2nnc(NC(=O)Cc3ccccc3Cl)s2)cn1" please.
Output: 75 to 100%

Input: Report inhibition at 1 µM for "O=C(Cc1ccccn1)Nc1ccc(CCCCc2nnc(NC(=O)Cc3cccc(OC(F)(F)F)c3)s2)c(F)n1" please.
Output: 75 to 100%

Input: Report inhibition at 1 µM for "O=C(Cc1cccc(OC(F)(F)F)c1)Nc1ccc(CCCCc2nnc(NC(=O)Cn3nc(C(F)(F)F)cc3C(F)(F)F)s2)cn1" please.
Output: < 25%

Input: Report inhibition at 1 µM for O=C(Cc1cccnc1)Nc1ccc(CC2CC(c3nnc(NC(=O)Cc4cccc(OC(F)(F)F)c4)s3)C2)cn1 (centres unmarked) please.
Output: 75 to 100%

Input: Report inhibition at 1 µM for "COc1ccccc1CC(=O)Nc1nnc(CCCCc2ccc(NC(=O)Cc3ccccc3Cl)nc2)s1" please.
Output: 75 to 100%

Input: Report inhibition at 1 µM for "O=C(Cc1cccc(OC(F)(F)F)c1)Nc1ccc(CCCCc2nnc(NC(=O)Cc3cnccn3)s2)cn1" please.
Output: 50 to 75%

Input: Report inhibition at 1 µM for "N#Cc1cccc(CC(=O)Nc2nnc(CCCCc3ccc(NC(=O)Cc4cccc(OC(F)(F)F)c4)nc3)s2)c1" please.
Output: 75 to 100%

====

// reported inhibition at 1 µM for each item listed
Molecular target: L-glutaminase present in mice brain homogenate (Glutaminase(Brain)) (Mus musculus, UniProt D3Z7P3)
Sequence (D3Z7P3 55-674): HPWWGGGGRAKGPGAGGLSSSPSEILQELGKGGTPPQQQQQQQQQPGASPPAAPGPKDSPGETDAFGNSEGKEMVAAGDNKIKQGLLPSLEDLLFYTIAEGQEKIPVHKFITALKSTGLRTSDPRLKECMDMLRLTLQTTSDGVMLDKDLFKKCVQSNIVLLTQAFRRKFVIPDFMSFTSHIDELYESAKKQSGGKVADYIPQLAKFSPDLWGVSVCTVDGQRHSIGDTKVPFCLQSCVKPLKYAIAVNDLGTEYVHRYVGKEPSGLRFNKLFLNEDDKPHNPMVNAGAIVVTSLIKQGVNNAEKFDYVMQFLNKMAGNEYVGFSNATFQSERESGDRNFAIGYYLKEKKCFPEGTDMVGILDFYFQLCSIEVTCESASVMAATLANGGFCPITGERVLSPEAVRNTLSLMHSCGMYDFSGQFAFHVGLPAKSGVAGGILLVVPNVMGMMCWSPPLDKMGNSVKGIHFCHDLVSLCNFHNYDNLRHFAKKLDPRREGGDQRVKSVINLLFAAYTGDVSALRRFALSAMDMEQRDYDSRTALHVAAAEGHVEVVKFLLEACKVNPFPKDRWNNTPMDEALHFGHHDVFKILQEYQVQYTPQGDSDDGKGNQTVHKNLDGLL
Experiment: Glutaminase enzyme activity using glutaminase enzyme from mice brain/kidney homogenate (Nessler's reagent, ammonia)
Format: biochemical
Conditions: 1 μM; mice brain homogenate; read-out: Glutaminase(Brain) activity % inhibition @1 μM

> print(dat)
                                   compound     reported.metric   obs.value
1  COc1ccccc1CC(=O)Nc1nnc(CCC#Cc2ccc(NC(=O)Cc3ccccc3Cl)nc2)s1 [Example 1]  inhibition at 1 µM  75 to 100%

Input: Report inhibition at 1 µM for CS(=O)(=O)c1ccc(CC(=O)Nc2nnc(CCCCc3ccc(NC(=O)Cc4cccnc4)nc3)s2)cc1 [Example-14] please.
Output: 75 to 100%

Input: Report inhibition at 1 µM for O=C(Cc1cccc(OC(F)(F)F)c1)Nc1ccc(CCCCc2nnc(NC(=O)Cc3cccnc3)s2)cn1 [Example-10] please.
Output: 75 to 100%
